TARGET SYSTEM: CCR1 (Homo sapiens)
Sequence (P13501 24-91): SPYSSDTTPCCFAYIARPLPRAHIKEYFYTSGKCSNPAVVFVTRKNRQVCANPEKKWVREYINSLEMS
EXPERIMENT SUMMARY: Equilibrium competition receptor binding assay (SPA), [125I]-CCL5 on CHO/CCR1 membranes
PROTOCOL CONDITIONS: [125I]-CCL5 0.1 nM, CHO/CCR1 membranes, SPA; read-out: IC50 for the inhibition of CCL5 binding to CCR1

>  <CHEMICAL SMILES>
O=C(O)c1cc(S(=O)(=O)O)ccc1O

>  <TARGET SYSTEM>
CCR1 (Homo sapiens)

>  <IC50>
6.7 µM

$$$$
>  <CHEMICAL SMILES>
O=C(CCCCCCCCCCNS(=O)(=O)c1ccc(O)c(C(=O)O)c1)Nc1cc(C(=O)O)c(O)c(S(=O)(=O)O)c1

>  <TARGET SYSTEM>
CCR1 (Homo sapiens)

>  <IC50>
2.5 µM

$$$$
